- Tested on: Staphylococcus aureus
- TEST NAME: Antibacterial activity against wild type Staphylococcus aureus assessed as inhibition of bacterial growth
- Type: functional
Items are presented alongside their recorded MIC.
Use µg/mL as the unit, but write only the number.

CC(=O)O[C@H]1[C@H](C)[C@H](O)[C@H](C)[C@@H](O)[C@@H](C(C)OC(=O)C(C)(C)CC(=O)N2Cc3cc(-c4ccc5c(=O)c(C(=O)O)cn(C6CC6)c5c4OC(F)F)ccc3[C@H]2C)/C=C/C=C(/C)C(=O)NC2=CC(=O)c3c(c(O)c(C)c4c3C(=O)[C@@](C)(O/C=C/[C@H](O[C@H]3C[C@@H]5OCO[C@@H]5[C@@H](C)O3)[C@H]1C)O4)C2=O (some centres undefined): 8
CO/N=C1\CN(c2nc3c(cc2F)c(=O)c(C(=O)O)cn3C2CC2)CC1CN (centres undefined): 0.016
O=C(O)c1cn(C2CC2)c2cc(N3CCNCC3)c(F)cc2c1=O: 0.25

Turning to the following compound.
# input Enter reported MIC observed with Staphylococcus aureus for CC(=O)O[C@H]1[C@H](C)[C@H](O)[C@H](C)[C@@H](O)[C@@H](C(C)OC(=O)C(C)(C)CC(=O)O)/C=C/C=C(/C)C(=O)Nc2c3oc4cc(NCCCN5Cc6cc(-c7ccc8c(=O)c(C(=O)O)cn(C9CC9)c8c7OC(F)F)ccc6[C@H]5C)cc(O)c4nc-3c3c4c(c(C)c(O)c3c2=O)O[C@](C)(O/C=C/[C@H](O[C@H]2C[C@@H]3OCO[C@@H]3[C@@H](C)O2)[C@H]1C)C4=O (some centres undefined)
# output 4

----------
- Tested on: Staphylococcus aureus
- TEST NAME: Antibacterial activity against wild type Staphylococcus aureus assessed as inhibition of bacterial growth
- Assay type: functional
REPORTED PROPERTY: MIC
Param answer (str): number followed by unit.

CC(=O)O[C@H]1[C@H](C)[C@H](O)[C@H](C)[C@@H](O)[C@@H](C(C)OC(=O)C(C)(C)CC(=O)O)/C=C/C=C(/C)C(=O)NC2=CC(=O)c3c(c(O)c(C)c4c3C(=O)[C@@](C)(O/C=C/[C@H](O[C@H]3C[C@@H]5OCO[C@@H]5[C@@H](C)O3)[C@H]1C)O4)C2=O (some centres not stated): 0.25 µg/mL

# input Under Staphylococcus aureus: MIC value of COc1c(N2C[C@@H]3CCCN(CCCNc4cc(O)c5nc6c7c8c9c(C)c(O)c7c(=O)c(c-6oc5c4)NC(=O)/C(C)=C\C=C\[C@H](C(C)OC(=O)C(C)(C)CC(=O)O)[C@H](O)[C@@H](C)[C@@H](O)[C@@H](C)[C@H](OC(C)=O)[C@H](C)[C@@H](O[C@H]4C[C@@H]5OCO[C@@H]5[C@@H](C)O4)/C=C/O[C@@](C)(O9)C8=O)[C@@H]3C2)c(F)cc2c(=O)c(C(=O)O)cn(C3CC3)c12 (some centres not stated) ?
# output 1 µg/mL

# input Request: MIC, test system Staphylococcus aureus, entry COc1c(N2C[C@@H]3CCCN(c4cc(O)c5nc6c7c8c9c(C)c(O)c7c(=O)c(c-6oc5c4)NC(=O)/C(C)=C\C=C\[C@H](C(C)OC(=O)C(C)(C)CC(=O)O)[C@H](O)[C@@H](C)[C@@H](O)[C@@H](C)[C@H](OC(C)=O)[C@H](C)[C@@H](O[C@H]4C[C@@H]5OCO[C@@H]5[C@@H](C)O4)/C=C/O[C@@](C)(O9)C8=O)[C@@H]3C2)c(F)cc2c(=O)c(C(=O)O)cn(C3CC3)c12 (some centres not stated)
# output 0.5 µg/mL

# input Fill in the recorded MIC for this molecule, with Staphylococcus aureus as test system: CC(=O)O[C@H]1[C@H](C)[C@H](O)[C@H](C)[C@@H](O)[C@@H](C(C)OC(=O)C(C)(C)CC(=O)O)/C=C/C=C(/C)C(=O)Nc2c3oc4cc(N5Cc6cc(-c7ccc8c(=O)c(C(=O)O)cn(C9CC9)c8c7OC(F)F)ccc6[C@H]5C)cc(O)c4nc-3c3c4c(c(C)c(O)c3c2=O)O[C@](C)(O/C=C/[C@H](O[C@H]2C[C@@H]3OCO[C@@H]3[C@@H](C)O2)[C@H]1C)C4=O (some centres not stated)
# output 1 µg/mL

# input Fill in the recorded MIC for this molecule, with Staphylococcus aureus as test system: CC(=O)O[C@H]1[C@H](C)[C@H](O)[C@H](C)[C@@H](O)[C@@H](C(C)OC(=O)C(C)(C)CC(=O)N[C@@H]2CCCCN(c3c(F)cc4c(=O)c(C(=O)O)cn(C5CC5)c4c3Cl)C2)/C=C/C=C(/C)C(=O)NC2=CC(=O)c3c(c(O)c(C)c4c3C(=O)[C@@](C)(O/C=C/[C@H](O[C@H]3C[C@@H]5OCO[C@@H]5[C@@H](C)O3)[C@H]1C)O4)C2=O (some centres not stated)
# output 16 µg/mL

# input Look up MIC with Staphylococcus aureus for this molecule: CC(=O)O[C@H]1[C@H](C)[C@H](O)[C@H](C)[C@@H](O)[C@@H](C(C)OC(=O)C(C)(C)CC(=O)O)/C=C/C=C(/C)C(=O)Nc2c3oc4cc(N5CCCn6nc(C(=O)N7Cc8cc(-c9ccc%10c(=O)c(C(=O)O)cn(C%11CC%11)c%10c9OC(F)F)ccc8[C@H]7C)cc6C5)cc(O)c4nc-3c3c4c(c(C)c(O)c3c2=O)O[C@](C)(O/C=C/[C@H](O[C@H]2C[C@@H]3OCO[C@@H]3[C@@H](C)O2)[C@H]1C)C4=O (some centres not stated)
# output 16 µg/mL

----------
Entries annotated with measured MIC
- Test system: Staphylococcus aureus
- TEST NAME: Antibacterial activity against wild type Staphylococcus aureus assessed as inhibition of bacterial growth
- Assay type: functional

CC(=O)O[C@H]1[C@H](C)[C@H](O)[C@H](C)[C@@H](O)[C@@H](C(C)OC(=O)C(C)(C)CC(=O)O)/C=C/C=C(/C)C(=O)Nc2c3oc4cc(N5CCN(c6cc7c(cc6F)c(=O)c(C(=O)O)cn7C6CC6)CC5)cc(O)c4nc-3c3c4c(c(C)c(O)c3c2=O)O[C@](C)(O/C=C/[C@H](O[C@H]2C[C@@H]3OCO[C@@H]3[C@@H](C)O2)[C@H]1C)C4=O (some centres not stated): 0.5 µg/mL

Would you kindly look at the next entry?
# input Need MIC, item CNC1CCCN(c2c(F)cc3c(=O)c(C(=O)O)cn(C4CC4)c3c2OC)C1 (configuration not stated) [BALOFLOXACIN]
# output 0.13 µg/mL

----------
- System: Staphylococcus aureus
- TEST NAME: Antibacterial activity against wild type Staphylococcus aureus assessed as inhibition of bacterial growth
- Format: functional
REPORTED PROPERTY: MIC (µg/mL)
Give the value in µg/mL but do not write µg/mL after it.

Below, 8 molecules whose answers are already recorded.
C[C@H]1COc2c(C3(N)CC3)c(F)cc3c(=O)c(C(=O)O)cn1c23: 0.13
COc1c(N2CCCC(N(C)c3cc(O)c4nc5c6c7c8c(C)c(O)c6c(=O)c(c-5oc4c3)NC(=O)/C(C)=C\C=C\[C@H](C(C)OC(=O)C(C)(C)CC(=O)O)[C@H](O)[C@@H](C)[C@@H](O)[C@@H](C)[C@H](OC(C)=O)[C@H](C)[C@@H](O[C@H]3C[C@@H]4OCO[C@@H]4[C@@H](C)O3)/C=C/O[C@@](C)(O8)C7=O)C2)c(F)cc2c(=O)c(C(=O)O)cn(C3CC3)c12 (some centres undefined): 8
COc1c(N2C[C@@H]3CCCN[C@@H]3C2)c(F)cc2c(=O)c(C(=O)O)cn(C3CC3)c12: 0.016
CC(=O)O[C@H]1[C@H](C)[C@H](O)[C@H](C)[C@@H](O)[C@@H](C(C)OC(=O)C(C)(C)CC(=O)O)/C=C/C=C(/C)C(=O)Nc2c3oc4cc(NCCCNC5(c6c(F)cc7c(=O)c(C(=O)O)cn8c7c6OC[C@@H]8C)CC5)cc(O)c4nc-3c3c4c(c(C)c(O)c3c2=O)O[C@](C)(O/C=C/[C@H](O[C@H]2C[C@@H]3OCO[C@@H]3[C@@H](C)O2)[C@H]1C)C4=O (some centres undefined): 4
COc1c(N2CCN(C(=O)CC(C)(C)C(=O)OC(C)[C@H]3/C=C/C=C(/C)C(=O)NC4=CC(=O)c5c(c(O)c(C)c6c5C(=O)[C@@](C)(O/C=C/[C@H](O[C@H]5C[C@@H]7OCO[C@@H]7[C@@H](C)O5)[C@@H](C)[C@@H](OC(C)=O)[C@H](C)[C@H](O)[C@H](C)[C@H]3O)O6)C4=O)C(C)C2)c(F)cc2c(=O)c(C(=O)O)cn(C3CC3)c12 (some centres undefined): 64
CC(=O)O[C@H]1[C@H](C)[C@H](O)[C@H](C)[C@@H](O)[C@@H](C(C)OC(=O)C(C)(C)CC(=O)O)/C=C/C=C(/C)C(=O)Nc2c3oc4cc(N5CCC(CCCC(=O)N6Cc7cc(-c8ccc9c(=O)c(C(=O)O)cn(C%10CC%10)c9c8OC(F)F)ccc7[C@H]6C)CC5)cc(O)c4nc-3c3c4c(c(C)c(O)c3c2=O)O[C@](C)(O/C=C/[C@H](O[C@H]2C[C@@H]3OCO[C@@H]3[C@@H](C)O2)[C@H]1C)C4=O (some centres undefined): 64
CC(=O)O[C@H]1[C@H](C)[C@H](O)[C@H](C)[C@@H](O)[C@@H](C(C)OC(=O)C(C)(C)CC(=O)NC2(c3c(F)cc4c(=O)c(C(=O)O)cn5c4c3OC[C@@H]5C)CC2)/C=C/C=C(/C)C(=O)NC2=CC(=O)c3c(c(O)c(C)c4c3C(=O)[C@@](C)(O/C=C/[C@H](O[C@H]3C[C@@H]5OCO[C@@H]5[C@@H](C)O3)[C@H]1C)O4)C2=O (some centres undefined): 8
N[C@@H]1CCCCN(c2c(F)cc3c(=O)c(C(=O)O)cn(C4CC4)c3c2Cl)C1: 0.031

# input Which MIC is listed for CC(=O)O[C@H]1[C@H](C)[C@H](O)[C@H](C)[C@@H](O)[C@@H](C(C)OC(=O)C(C)(C)CC(=O)N[C@H]2[C@@H]3CN(c4nc5c(cc4F)c(=O)c(C(=O)O)cn5-c4ccc(F)cc4F)C[C@@H]32)/C=C/C=C(/C)C(=O)NC2=CC(=O)c3c(c(O)c(C)c4c3C(=O)[C@@](C)(O/C=C/[C@H](O[C@H]3C[C@@H]5OCO[C@@H]5[C@@H](C)O3)[C@H]1C)O4)C2=O (some centres undefined) ?
# output 8
